Let's look at some molecules and their measured CC50 at 6 days.
assay: Cell viability assay (AlamarBlue) in HepAD38 cells; details: human

{"columns": ["Molecule", "CC50 at 6 days"],
 "data": [
  ["CC(C)OC(=O)[C@H](C)NP(=O)(OCCN(C)C(=O)c1n[nH]c2c1CN(C(=O)c1cc3c(Cl)cccc3[nH]1)CC2)Oc1ccccc1 (stereo partly shown)", "> 32 µM"],
  ["O=C(c1cc2c(Cl)c(F)ccc2[nH]1)N1CCc2[nH]nc(C(=O)N3CCC(F)(F)C3)c2C1", "> 10 µM"],
  ["CN(CCO)C(=O)c1n[nH]c2c1CN(C(=O)c1cc3c(C(F)F)ccc(F)c3[nH]1)CC2", "> 10 µM"],
  ["COCC1(N(C)C(=O)c2n[nH]c3c2CN(C(=O)c2cc4ccc(Cl)cc4[nH]2)CC3)CC1", "> 10 µM"]
]}

----------
Let's look at some compounds and their measured CC50 at 6 days.
assay: Cell viability assay (AlamarBlue) in HepAD38 cells; details: human
Endpoint: CC50 at 6 days

{"columns": ["Compound", "Result"],
 "data": [
  ["O=C(c1cc2c(F)cc(F)cc2[nH]1)N1CCc2n[nH]c(C3CCC3)c2C1 [Example 388]", "> 10 µM"],
  ["CS(=O)(=O)c1n[nH]c2c1CN(C(=O)c1cc3ccccc3[nH]1)CC2 [Example 211]", "> 10 µM"],
  ["O=C(c1cc2ccccc2[nH]1)N1CCc2[nH]nc(C(=O)N3CC[C@H](O)C3)c2C1 [Example 157]", "> 10 µM"],
  ["C#CCN(C)C(=O)c1n[nH]c2c1CN(C(=O)c1cc3ccccc3[nH]1)CC2 [Example 312]", "> 10 µM"],
  ["COCC1(N(C)C(=O)c2n[nH]c3c2CN(C(=O)c2cc4c(F)ccc(F)c4[nH]2)CC3)CC1 [Example 297]", "> 10 µM"],
  ["CN(CCC#N)C(=O)c1n[nH]c2c1CN(C(=O)c1cc3ccccc3[nH]1)CC2 [Example 292]", "> 10 µM"],
  ["COCCC1(N(C)C(=O)c2[nH]nc3c2CN(C(=O)c2cc4ccccc4[nH]2)CC3)CC1 [Example 248]", "> 10 µM"],
  ["CN(C(=O)c1n[nH]c2c1CN(C(=O)c1cc3c(F)c(F)ccc3[nH]1)CC2)C1(CO)CC1 [Example 240]", "> 10 µM"],
  ["O=C(c1cc2ccccc2[nH]1)N1CCc2[nH]nc(C(=O)N3CCOCC34CC4)c2C1 [Example 195]", "> 10 µM"],
  ["O=C(c1cc2cccc(Cl)c2[nH]1)N1CCc2[nH]ncc2C1 [Example 120]", "> 100 µM"],
  ["O=C(c1cc2ccccc2[nH]1)N1CCc2[nH]nc(C(=O)N3CC[C@@H](F)C3)c2C1 [Example 225]", "> 10 µM"],
  ["O=C(c1cc2ccccc2[nH]1)N1CCc2[nH]nc(C(=O)N3CC(CO)C3)c2C1 [Example 45]", "> 100 µM"],
  ["Cc1cc(F)cc2[nH]c(C(=O)N3CCc4[nH]ncc4C3)cc12 [Example 135]", "> 100 µM"],
  ["CN(C(=O)c1n[nH]c2c1CN(C(=O)c1cc3c(F)cc(F)cc3[nH]1)CC2)C1(CO)CC1 [Example 238]", "> 10 µM"],
  ["CCOCC1(N(C)C(=O)c2[nH]nc3c2CN(C(=O)c2cc4c(F)cc(F)cc4[nH]2)CC3)CC1 [Example 363]", "> 10 µM"],
  ["CCOCCN(C)C(=O)c1n[nH]c2c1CN(C(=O)c1cc3ccccc3[nH]1)CC2 [Example 255]", "> 10 µM"]
]}

----------
Let's look at some molecules and their measured CC50 at 6 days.
experiment: Cell viability assay (AlamarBlue) in HepAD38 cells; conditions: human

{"columns": ["Molecule", "CC50 at 6 days"],
 "data": [
  ["CON(C)C(=O)c1n[nH]c2c1CN(C(=O)c1cc3c(C)cc(F)cc3[nH]1)CC2", "98 µM"],
  ["CON(C)C(=O)c1n[nH]c2c1CN(C(=O)c1cc3c(Cl)cccc3[nH]1)CC2", "> 100 µM"],
  ["O=C(c1cc2c(C(F)F)cc(F)cc2[nH]1)N1CCc2n[nH]c(C3CCC3)c2C1", "> 10 µM"],
  ["CN(OCCO)C(=O)c1n[nH]c2c1CN(C(=O)c1cc3ccccc3[nH]1)CC2", "> 10 µM"],
  ["O=C(c1cc2c(F)c(F)ccc2[nH]1)N1CCc2[nH]nc(C3CCCO3)c2C1 (centres unmarked)", "> 10 µM"],
  ["CN(C(=O)c1n[nH]c2c1CN(C(=O)c1cc3ccccc3[nH]1)CC2)C1CCCOC1 (centres unmarked)", "> 10 µM"],
  ["O=C(c1cc2ccccc2[nH]1)N1CCc2[nH]nc(OC3CCCC3)c2C1", "> 10 µM"],
  ["Cc1cc(F)cc2[nH]c(C(=O)N3CCc4[nH]nc(C56CC(C5)C6)c4C3)cc12", "> 10 µM"]
]}

----------
molecular target: HBV core protein (UniProt P03146); construct: fused on or other part: BODIPY-FL maleimide label on the C-terminal Cys150; assay: Biochemical capsid assembly assay (fluorescence quenching); parameters: species or system hepatitis B virus; conditions: read-out: Assembly Activity (IC50); BODIPY-FL labelled core protein, 300 μM NaCl, read 6 min after start
Sequence (P03146 whole entry, looked up, the tested form may be a part): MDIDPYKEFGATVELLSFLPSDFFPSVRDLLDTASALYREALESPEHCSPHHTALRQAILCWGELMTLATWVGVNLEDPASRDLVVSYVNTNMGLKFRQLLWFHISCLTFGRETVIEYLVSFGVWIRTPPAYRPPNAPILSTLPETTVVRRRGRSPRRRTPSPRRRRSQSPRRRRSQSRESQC
pIC50: −log10 of the molar value.
Endpoint: pIC50

{"columns": ["Molecule", "Endpoint", "Result"],
 "data": [
  ["CCc1cccc2[nH]c(C(=O)N3CCc4[nH]nc(C(=O)N(C)C5(CO)CC5)c4C3)cc12 [Example 291]", "pIC50", "> 5.30"],
  ["CN(Cc1cn(C)nn1)C(=O)c1n[nH]c2c1CN(C(=O)c1cc3ccccc3[nH]1)CC2 [Example 316]", "pIC50", "> 5.30"],
  ["CC(C)[C@H](N)C(=O)OCCN(C)C(=O)c1n[nH]c2c1CN(C(=O)c1cc3ccccc3[nH]1)CC2 [Example 48]", "pIC50", "> 5.30"],
  ["CN(C(=O)c1n[nH]c2c1CN(C(=O)c1cc3ccccc3[nH]1)CC2)[C@@H]1CCCC[C@H]1O (racemic) [Example 192]", "pIC50", "5.00 to 5.30"],
  ["Cc1cccc2[nH]c(C(=O)N3CCc4[nH]nc(C(=O)N(C)OCCOP(=O)(N[C@@H](C)C(=O)OC(C)C)Oc5ccccc5)c4C3)cc12 (some centres unmarked) [Example 55]", "pIC50", "> 5.30"],
  ["CN(C(=O)c1[nH]nc2c1CN(C(=O)c1cc3ccccc3[nH]1)CC2)C1(CO)COC1 [Example 249]", "pIC50", "> 5.30"],
  ["CCc1cccc2[nH]c(C(=O)N3CCc4n[nH]c(-c5cscn5)c4C3)cc12 [Example 18]", "pIC50", "> 5.30"],
  ["O=C(c1cc2ccccc2[nH]1)N1CCc2[nH]nc(NCC3CCOCC3)c2C1 [Example 81]", "pIC50", "> 4.00"],
  ["CCc1cc(F)cc2[nH]c(C(=O)N3CCc4[nH]nc(C(=O)N(C)CCO)c4C3)cc12 [Example 10]", "pIC50", "> 5.30"],
  ["O=C(c1cc2ccccc2[nH]1)N1CCc2[nH]nc(C(=O)N3CCCN3)c2C1 [Example 124]", "pIC50", "> 5.30"],
  ["O=C(c1cc2ccccc2[nH]1)N1CCc2n[nH]c(C(=O)N3CCCCC34CC4)c2C1 [Example 279]", "pIC50", "> 5.30"],
  ["CN(C(=O)c1n[nH]c2c1CN(C(=O)c1cc3ccccc3[nH]1)CC2)C1(COCC(F)(F)F)CC1 [Example 359]", "pIC50", "> 5.30"],
  ["CN(CCC#N)C(=O)c1n[nH]c2c1CN(C(=O)c1cc3ccccc3[nH]1)CC2 [Example 292]", "pIC50", "> 5.30"],
  ["COCC1(N(C)C(=O)c2n[nH]c3c2CN(C(=O)c2cc4cc(F)ccc4[nH]2)CC3)CC1 [Example 204]", "pIC50", "> 5.30"],
  ["O=C(c1cc2c(Cl)cccc2[nH]1)N1CCc2n[nH]c(-c3cscn3)c2C1 [Example 19]", "pIC50", "> 5.30"],
  ["CN(CCO)C(=O)c1n[nH]c2c1CN(C(=O)c1cc3ccc(Br)cc3[nH]1)CC2 [Example 29]", "pIC50", "> 5.30"],
  ["O=C(c1cc2ccccc2[nH]1)N1CCc2[nH]nc(C(=O)N3CCOCC34CC4)c2C1 [Example 195]", "pIC50", "5.00 to 5.30"],
  ["O=C(c1cc2ccccc2[nH]1)N1CCc2[nH]nc(C(=O)N3CCOCC3)c2C1 [Example 108]", "pIC50", "> 4.00"],
  ["Cc1noc(-c2n[nH]c3c2CN(C(=O)c2cc4ccccc4[nH]2)CC3)n1 [Example 116]", "pIC50", "5.00 to 5.30"],
  ["CN(CC1CCCO1)C(=O)c1n[nH]c2c1CN(C(=O)c1cc3ccccc3[nH]1)CC2 (centres unmarked) [Example 97]", "pIC50", "5.00 to 5.30"],
  ["CCOCC1(N(C)C(=O)c2[nH]nc3c2CN(C(=O)c2cc4c(C)cc(F)cc4[nH]2)CC3)CC1 [Example 366]", "pIC50", "> 5.30"],
  ["CN(C(=O)c1n[nH]c2c1CN(C(=O)c1cc3c(Cl)cccc3[nH]1)CC2)C1(CO)CC1 [Example 290]", "pIC50", "> 5.30"],
  ["CNC1(COC(=O)c2n[nH]c3c2CN(C(=O)c2cc4ccccc4[nH]2)CC3)CC1 [Example 32]", "pIC50", "> 5.30"],
  ["CN(OCCO)C(=O)c1n[nH]c2c1CN(C(=O)c1cc3c(Cl)cccc3[nH]1)CC2 [Example 196]", "pIC50", "> 5.30"],
  ["O=C(c1cc2ccccc2[nH]1)N1CCc2[nH]nc(C(=O)N3CCSCC3)c2C1 [Example 159]", "pIC50", "> 5.30"],
  ["CCOCC1(N(C)C(=O)c2[nH]nc3c2CN(C(=O)c2cc4cccc(F)c4[nH]2)CC3)CC1 [Example 367]", "pIC50", "> 5.30"],
  ["CNC(C)(C)COC(=O)c1n[nH]c2c1CN(C(=O)c1cc3ccccc3[nH]1)CC2 [Example 31]", "pIC50", "5.00 to 5.30"],
  ["O=C(c1cc2ccccc2[nH]1)N1CCc2[nH]nc(C(=O)N3CCCC34CC4)c2C1 [Example 184]", "pIC50", "> 5.30"],
  ["Cc1cccc2[nH]c(C(=O)N3CCc4[nH]nc(C(=O)N(C)OCCO)c4C3)cc12 [Example 197]", "pIC50", "> 5.30"],
  ["CN(CC1(O)CCC1)C(=O)c1n[nH]c2c1CN(C(=O)c1cc3ccccc3[nH]1)CC2 [Example 254]", "pIC50", "> 5.30"],
  ["CN(CCO)C(=O)c1n[nH]c2c1CN(C(=O)c1cc3c(Cl)cc(F)cc3[nH]1)CC2 [Example 60]", "pIC50", "> 5.30"],
  ["O=C(c1cc2ccccc2[nH]1)N1CCc2[nH]nc(C3CCC3)c2C1 [Example 167]", "pIC50", "> 5.30"]
]}

This collection of values is drawn from patent US11236087B2.
